Tested on: Caco-2
method: cell viability relative to DMSO; higher = less toxic
test_settings: 72 h; 1 nM
readout_name: cell viability (%)
Reply numerically in %, unit not repeated.

Return value of cell viability for input Cc1cc(/C=C2\SC(=O)N(c3ccccc3)C2=O)c(C)n1-c1cccnc1 , no commentary.
107

Return value of cell viability for input Clc1ccccc1C(c1ccccc1)(c1ccccc1)n1cccn1 , no commentary.
95.8

Return value of cell viability for input Nc1nonc1/C(=N/O)Nc1ccc(F)c(Cl)c1 , no commentary.
101

Return value of cell viability for input N=C(N)NCCC[C@@H](N)C(=O)N[C@@H](CCCNC(=N)N)C(=O)N1CCC[C@H]1C(=O)N1C[C@H](O)C[C@H]1C(=O)NCC(=O)N[C@@H](Cc1cccs1)C(=O)N[C@@H](CO)C(=O)N1Cc2ccccc2C[C@@H]1C(=O)N1[C@H](C(=O)N[C@@H](CCCNC(=N)N)C(=O)O)C[C@@H]2CCCC[C@@H]21 [icatibant-acetate] , no commentary.
96

Return value of cell viability for input CCOC(=O)c1ccccc1OC(N)=O [ethyl-2-(carbamoyloxy)benzoate] , no commentary.
104

Return value of cell viability for input OC[C@H]1O[C@H]([S-])[C@H](O)[C@@H](O)[C@@H]1O.[Au+] , no commentary.
108

Return value of cell viability for input c1cc(Cc2cnc[nH]2)ccn1 , no commentary.
99.7

Return value of cell viability for input O=C1O[C@H]([C@@H](O)CO)C([O-])=C1O.[Na+] [sodium-ascorbate] , no commentary.
91.7

Return value of cell viability for input CO[C@@]1(NC(=O)CSC[C@@H](N)C(=O)O)C(=O)N2C(C(=O)O)=C(CSc3nnnn3C)CS[C@@H]21 , no commentary.
106

Return value of cell viability for input C#C[C@]1(O)C=C[C@H]2[C@@H]3CCC4=CC(=O)CC[C@@H]4[C@H]3CC[C@@]21CC , no commentary.
90.1

Return value of cell viability for input CC(=O)N[C@@H](CS)C(=O)O , no commentary.
105

Return value of cell viability for input COc1ccc(C2(CNC(=O)c3ccc(NC(=O)c4ccco4)cc3)CCOCC2)cc1 , no commentary.
101

Return value of cell viability for input CNC(=O)c1c(I)c(C(=O)NCC(=O)Nc2c(I)c(C(=O)O)c(I)c(C(=O)NCCO)c2I)c(I)c(N(C)C(C)=O)c1I , no commentary.
104

Return value of cell viability for input CC(C)c1cccc2c(-c3ccccc3)cc(-c3ccc(-c4ccc(C(=O)O)cc4)[nH]3)nc12 , no commentary.
89.3

Return value of cell viability for input COc1ccc(OC)c2c(=S)c3ccccc3[nH]c12 , no commentary.
112

Return value of cell viability for input CC(C)(Oc1ccc(C2CC2(Cl)Cl)cc1)C(=O)O (stereo unspecified) [ciprofibrate] , no commentary.
101

* * *

Answer each item with its documented drug-induced phospholipidosis.
System: A549-ACE2
method: drug-induced phospholipidosis relative to tamoxifen; higher = more phospholipidosis
test_settings: 0.3 µM; 72 h
Reply numerically in %, unit not repeated.

Return value of drug-induced phospholipidosis for input NC(=O)N1CCC(CC(=O)N2CCC([C@H]3c4ncc(Br)cc4CCc4cc(Cl)cc(Br)c43)CC2)CC1 , no commentary.
15.9

Return value of drug-induced phospholipidosis for input Cc1cc(Nc2ccc(NC(=O)c3ccc(Nc4ccnc5ccccc45)cc3)cc2)nc(N)n1 , no commentary.
4.09

Return value of drug-induced phospholipidosis for input CC1(C)CC[C@]2(C(=O)O)CC[C@]3(C)[C@H](C(=O)C=C4[C@@]5(C)C=C(C#N)C(=O)C(C)(C)[C@@H]5CC[C@]43C)[C@@H]2C1 , no commentary.
-2.71

Return value of drug-induced phospholipidosis for input CN1CCC[C@@H](CC2c3ccccc3Sc3ccccc32)C1 (racemic) , no commentary.
4.08

* * *

System: Vero E6
method: cell viability relative to DMSO; higher = less toxic
test_settings: 72 h; 10000 nM
Answer each item with its documented cell viability.
Number first, unit second.

Return value of cell viability for input CCCCC(=O)NCCc1c(Cc2ccccc2)[nH]c2ccccc12 , no commentary.
93.8%

Return value of cell viability for input OC[C@H]1O[C@H](O[C@]2(CCl)O[C@H](CCl)[C@@H](O)[C@@H]2O)[C@H](O)[C@@H](O)[C@H]1Cl , no commentary.
92.7%

Return value of cell viability for input CC(=N)NCc1cccc(CN)c1 [1400W] , no commentary.
97.7%

Return value of cell viability for input Cc1nc2c([nH]1)-c1ccccc1N(C(=O)c1ccc(NC(=O)c3ccccc3-c3ccccc3)cc1)CC2 , no commentary.
100%

Return value of cell viability for input CCC1NC(=O)c2cc(S(N)(=O)=O)c(Cl)cc2N1 (stereo not drawn) , no commentary.
98.6%

Return value of cell viability for input COc1ccc2c(c1)c(C1=C(c3c[nH]c4ccccc34)C(=O)NC1=O)cn2CCCN(C)C , no commentary.
75.3%

Return value of cell viability for input O=C(/C=C/c1cccc(S(=O)(=O)Nc2ccccc2)c1)NO , no commentary.
0.1%

Return value of cell viability for input O=C(O[C@H]1C[N+]2(CCCOc3ccccc3)CCC1CC2)C(O)(c1cccs1)c1cccs1 , no commentary.
98.7%

Return value of cell viability for input CN1CCC[C@@H](CC2c3ccccc3Sc3ccccc32)C1 (racemic) , no commentary.
74%

Return value of cell viability for input N[C@@H]1[C@H]2CN(c3nc4c(cc3F)c(=O)c(C(=O)O)cn4-c3ccc(F)cc3F)C[C@@H]12 , no commentary.
98.2%

Return value of cell viability for input CCc1ccc2c(-c3cccc(Cl)c3)nc(=O)n(CC)c2n1 , no commentary.
91.9%

Return value of cell viability for input Cc1ccc2c(c1)[C@]13CCCC[C@@H]1[C@H](C2)N(C)CC3 , no commentary.
106%

Return value of cell viability for input CCC1(CC)C(=O)C=CNC1=O , no commentary.
93.6%

Return value of cell viability for input O=Cc1ccc(CO)o1 , no commentary.
97.3%

Return value of cell viability for input O=C(CCCCCN1C(=O)c2cccc3cccc(c23)C1=O)NO , no commentary.
0.1%

Return value of cell viability for input OC[C@H]1O[C@H]([S-])[C@H](O)[C@@H](O)[C@@H]1O.[Au+] , no commentary.
117%

Return value of cell viability for input COc1ccc(CN(CCN(C)C)c2ccccn2)cc1 , no commentary.
102%

Return value of cell viability for input O=C(Nc1ccc(Cl)cc1)Nc1cccc(-c2cccc(N3CCCC3)n2)c1 , no commentary.
91.8%

Return value of cell viability for input O=C(Oc1ccc([N+](=O)[O-])cc1)N1CCC(C(O)(c2ccc3c(c2)OCO3)c2ccc3c(c2)OCO3)CC1 , no commentary.
91%

Return value of cell viability for input CN1C(=O)C(F)=C[C@]2(C)[C@H]3CC[C@]4(C)[C@@H](C(=O)NCc5nc6cccnc6[nH]5)CC[C@H]4[C@@H]3CC[C@@H]12 , no commentary.
104%

Return value of cell viability for input COc1cc(C[C@@H](CO)[C@H](CO)Cc2ccc(O)c(OC)c2)ccc1O [secoisolariciresinol-(-)] , no commentary.
99.3%

Return value of cell viability for input CCOC(=O)c1ccc(-c2ccc(OC(=O)N(C)Cc3cccc(-c4ccncc4)c3)cc2)cc1 , no commentary.
91.4%

Return value of cell viability for input Cc1ccc(CCCO)c(NCc2ccc3nc(NCCCN4CCOCC4)n(Cc4nc(C)ccc4O)c3c2)c1 , no commentary.
102%

Return value of cell viability for input O=C(c1ccc(Cl)cc1)N(Cc1ccccc1)C1CCCCC1 , no commentary.
90.8%

Return value of cell viability for input CC(=O)N(OCc1ccccc1)[C@@H]1c2cc(C#N)ccc2OC(C)(C)[C@H]1O , no commentary.
109%

Return value of cell viability for input Clc1ccccc1C(c1ccccc1)(c1ccccc1)n1cccn1 , no commentary.
98.9%

Return value of cell viability for input CCCOc1ccc(S(=O)(=O)N2CCN(CCO)CC2)cc1-c1nc2c(CCC)cn(CC)c2c(=O)[nH]1 , no commentary.
102%

Return value of cell viability for input CCOC(=O)CSCCC1NC(C(=O)O)CS1 (stereo not drawn) , no commentary.
93.3%

Return value of cell viability for input C[C@@H](C1=C(CCN(C)C)Cc2ccccc21)c1ccccn1 (racemic) , no commentary.
96.5%

Return value of cell viability for input CN[C@H]1C(=O)N[C@@H]2Cc3ccc(cc3)Oc3cc4cc(c3O[C@@H]3O[C@H](C(=O)O)[C@@H](O)[C@H](O)[C@H]3NC(=O)CCCCCCCCC(C)C)Oc3ccc(cc3Cl)[C@@H](O)[C@@H]3NC(=O)[C@H](NC(=O)[C@@H]4NC(=O)[C@@H](NC2=O)c2cc(cc(O)c2Cl)Oc2cc1ccc2O)c1ccc(O)c(c1)-c1c(O[C@H]2O[C@H](CO)[C@@H](O)[C@H](O)[C@@H]2O)cc(O)cc1[C@@H](C(=O)NCCCN(C)C)NC3=O , no commentary.
102%

Return value of cell viability for input N=C1N[C@H]2[C@H](CS[C@H]2CCCCC(=O)O)N1 , no commentary.
102%

Return value of cell viability for input O=C(OCC(COC(=O)c1cccnc1)(COC(=O)c1cccnc1)COC(=O)c1cccnc1)c1cccnc1 , no commentary.
73.8%

Return value of cell viability for input O=C(O)CN1C(=O)c2cccc3cccc(c23)C1=O , no commentary.
101%
